Molecular target: EGFR on EGFR positive non-small cell lung cancer cells NCI-H1650 (UniProt P00533 25-1210)
Assay: cell-based or functional assay
Recorded H1650 GFP Flourescence EC50 for the following binders
Numeric only. Scale: µg/mL

Answered examples (2):
>>> quantitative_readout("AbB-SR (antibody, human IgG1, kappa, V domains shown, synthon SR on reduced interchain cysteines; average DAR 2.1 per ADC) VH: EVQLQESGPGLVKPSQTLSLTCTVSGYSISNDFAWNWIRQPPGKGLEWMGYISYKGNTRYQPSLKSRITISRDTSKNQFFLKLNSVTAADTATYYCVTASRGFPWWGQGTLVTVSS VL: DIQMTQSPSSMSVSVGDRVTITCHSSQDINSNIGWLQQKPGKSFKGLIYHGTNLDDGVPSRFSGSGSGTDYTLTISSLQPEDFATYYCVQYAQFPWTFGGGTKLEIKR")
2.1
>>> quantitative_readout("AbB-YG (antibody, human IgG1, kappa, V domains shown, synthon YG on reduced interchain cysteines; average DAR 1.1 per ADC) VH: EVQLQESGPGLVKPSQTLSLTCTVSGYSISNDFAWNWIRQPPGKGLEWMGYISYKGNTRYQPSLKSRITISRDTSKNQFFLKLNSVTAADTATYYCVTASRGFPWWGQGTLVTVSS VL: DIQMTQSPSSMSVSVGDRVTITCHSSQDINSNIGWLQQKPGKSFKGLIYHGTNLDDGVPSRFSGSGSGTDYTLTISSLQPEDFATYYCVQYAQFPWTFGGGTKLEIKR")
1.55

*Q* Need H1650 GFP Flourescence EC50, item AbB-LB (antibody, human IgG1, kappa, V domains shown, synthon LB on reduced interchain cysteines; average DAR 1.8 per ADC) VH: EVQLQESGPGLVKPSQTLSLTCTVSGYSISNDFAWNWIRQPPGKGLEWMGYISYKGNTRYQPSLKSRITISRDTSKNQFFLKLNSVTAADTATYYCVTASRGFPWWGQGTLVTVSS VL: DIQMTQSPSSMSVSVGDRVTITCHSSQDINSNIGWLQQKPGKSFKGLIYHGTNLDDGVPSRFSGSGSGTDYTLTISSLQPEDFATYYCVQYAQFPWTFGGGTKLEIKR
*A* 2.38
